B1: library; numbered along this chain (parent)
chain: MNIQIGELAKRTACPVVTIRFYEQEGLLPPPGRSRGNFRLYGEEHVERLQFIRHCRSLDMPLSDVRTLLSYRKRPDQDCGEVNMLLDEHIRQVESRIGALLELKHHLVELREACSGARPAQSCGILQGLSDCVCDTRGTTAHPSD

variants of: B1; experiment: sfGFP reporter fluorescence (15 h) (µM FITC); higher = stronger transcriptional activation; conditions: library round: Round 0; ligand: 1 µM Pb
measured attribute: sfGFP reporter fluorescence

The following variants have reported results that may help.
mutation list: P143G
obs value: 0.0695
//
mutation list: L85I
obs value: 0.0685

Q: Using the record for H142A , report its sfGFP reporter fluorescence.
Ans: 0.0718

Q: Another variant to look at: P15D
Ans: 0.0689

Taken from the supplement of paper PMC12783771.
